Target: HCV polymerase (NS5B) type 1b (Hepatitis C virus genotype 1b)
Construct: a region encoding NS5B (J Virol 1991 March, 65(3), 1105-13, 544 amino acids after deletion of 47 amino acids on the C-terminal); 6xHis (C); made in house; host or cells: Escherichia coli
Sequence (P26663 2420-2963): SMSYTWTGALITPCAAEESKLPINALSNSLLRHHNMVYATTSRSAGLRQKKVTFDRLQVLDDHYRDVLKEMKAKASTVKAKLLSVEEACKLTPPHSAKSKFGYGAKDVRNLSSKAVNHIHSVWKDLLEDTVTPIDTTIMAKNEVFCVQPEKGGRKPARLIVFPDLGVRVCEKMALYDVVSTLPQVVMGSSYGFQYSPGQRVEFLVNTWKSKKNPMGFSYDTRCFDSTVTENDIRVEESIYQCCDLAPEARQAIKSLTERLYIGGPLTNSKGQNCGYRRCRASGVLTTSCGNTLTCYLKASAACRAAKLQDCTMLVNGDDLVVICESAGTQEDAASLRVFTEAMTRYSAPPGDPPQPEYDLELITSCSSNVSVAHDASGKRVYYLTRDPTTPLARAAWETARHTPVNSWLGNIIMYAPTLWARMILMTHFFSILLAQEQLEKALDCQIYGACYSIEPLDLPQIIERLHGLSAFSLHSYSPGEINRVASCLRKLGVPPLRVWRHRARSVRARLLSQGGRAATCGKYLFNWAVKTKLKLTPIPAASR
Assay: Assay of enzyme (HCV polymerase) inhibitory activity, type 1b enzyme
Type: biochemical, HCV BK strain (type 1b)
Conditions: HCV polymerase inhibitory activity (IC50), 1b, type 1b enzyme 0.5 μg/ml, 25° C., 60 min
pIC50: −log10 of the molar value.
parameter: pIC50

CN(C)c1ccc(CNC(=O)C2CN(C(=O)CCN3CCOCC3)CCN2S(=O)(=O)c2ccc(I)cc2)cc1 (stereo not shown) [Example 113]: < 6.00
CCCc1ccc(CNC(=O)[C@H]2CN(C(=O)Cn3nnc(CC(=O)O)n3)CCN2S(=O)(=O)c2ccc(OC(F)(F)F)cc2)cc1 [Example 465]: > 7.00
CC(C)c1ccc(CNC(=O)[C@H]2CN(C(=O)C(N)=O)CCN2S(=O)(=O)c2ccc(C(F)(F)F)cc2)cc1 [Example 308]: < 6.00

Proceeding to the next molecule to report its pIC50.
// map CCCc1ccc(S(=O)(=O)N2CCN(c3nc(C)c(C(=O)OC)s3)C[C@@H]2C(=O)NCc2ccc(C(C)C)cc2)cc1 [Example 297] to recorded pIC50 (system: HCV polymerase (NS5B) type 1b (Hepatitis C virus genotype 1b)) > 7.00
